Parameter IC50 of gametocyte viability: see the listing below.
system: Plasmodium falciparum NF54 gametocytes; settings: gametocyte stage: Stage V Dose Response IC50 (µM); assay protocol: TSSA, 384; incubation time: 72 h
Respond numerically; units are µM and should not be typed.

1. CCN(CC)CCCC(C)Nc1cc(OC)cc2cccnc12 (stereo not given) [Pamaquine (diethlyprimaquine)] : 9.38

Tell me the measured IC50 of gametocyte viability of CN(C)c1ccc2nc3ccc(=[N+](C)C)cc-3sc2c1 [Methylene Blue trihydrate] , please.
1.04

---

system: Plasmodium falciparum NF54 gametocytes; conditions: gametocyte stage: Stage V Dose Response IC50 (µM); assay protocol: SaLSSA, 384; incubation time: 72 h
property.label: IC50 of gametocyte viability (µM)
Respond numerically; units are µM and should not be typed.

Here are 2 compounds together with their reported answers.
1) N=C(N)c1ccc(OCCCCCOc2ccc(C(=N)N)cc2)cc1 : 2.14
2) O[C@@H](c1cc(C(F)(F)F)nc2c(C(F)(F)F)cccc12)[C@H]1CCCCN1 [Mefloquine (+ RS)] : 0.158

Please examine the following record next.
Tell me the measured IC50 of gametocyte viability of `CNc1ccc(N(C)C(=O)c2cn3c(-c4ccc(Cl)cc4)cnc3cn2)cc1` , please.
0.15

---

Parameter IC50 of gametocyte viability: see the listing below.
test system: Plasmodium falciparum NF54 gametocytes; conditions: gametocyte stage: Stage V Dose Response IC50 (µM); assay protocol: SaLSSA, 384; incubation time: 72 h
Counter-ions that a name gives are not always drawn.

1) CO[C@H]1O[C@@H]2O[C@@]3(C)CC[C@H]4[C@H](C)CC[C@@H]([C@H]1C)[C@@]24OO3 : > 12.5 µM
2) CN(C(=O)c1cn2c(-c3ccc(C#N)cc3)cnc2cn1)c1ccc(C(F)(F)F)cc1 : 0.156 µM
3) C=C[C@H]1CN2CC[C@@H]1C[C@H]2[C@H](O)c1ccnc2ccc(OC)cc12 [Quinine sulfate dihydrate (coeff. 2)] : > 8.86 µM
4) COc1cc(C)c2c(Oc3cccc(C(F)(F)F)c3)c(OC)cc(NC(C)CCCN)c2n1 (stereo not drawn) : 2.45 µM
5) CCN(CC)CCCC(C)Nc1ccnc2cc(Cl)ccc12 (stereo not drawn) : > 6.25 µM
6) COc1cc(NC(C)CCCN)c2ncccc2c1 (stereo not drawn) : 6.5 µM
7) CC(C)NC(=N)NC(=N)Nc1ccc(Cl)cc1 [proguanil hydrochloride/1.14] : > 12.5 µM
8) Nc1ccc(S(=O)(=O)Nc2ncccn2)cc1 : > 12.5 µM
9) C[C@@H]1C[C@@H]([C@H](O)CC2CC(=O)NC(=O)C2)C(=O)[C@@H](C)C1 [Cycloheximide] : 2.69 µM
10) Clc1ccc2c(N3CCN(CCCN4CCN(c5ccnc6cc(Cl)ccc56)CC4)CC3)ccnc2c1 [Piperaquine phosphate] : > 4.17 µM

Tell me the measured IC50 of gametocyte viability of O=CN(O)CCCP(=O)([O-])O [fosmidomycin mono sodium] , please.
> 12.5 µM

Another compound to check: C[C@H]1[C@@H](O)O[C@@H]2O[C@@]3(C)CC[C@H]4[C@H](C)CC[C@@H]1[C@@]24OO3 [Artenimol (Dihydro artemisinin)]
> 12.5 µM

Another compound to check: `CC1(C)c2nc(-c3ccc(F)cc3)c(Nc3ccc(Cl)cc3)n2CCN1C(=O)CN`
0.00336 µM

Another compound to check: `COc1cc(Cc2cnc(N)nc2N)cc(OC)c1OC`
> 12.5 µM

Another compound to check: `Cc1cc(NS(=O)(=O)c2ccc(N)cc2)no1`
> 12.5 µM

Another compound to check: `CCc1nc(N)nc(N)c1-c1ccc(Cl)cc1`
> 12.5 µM

Another compound to check: C[C@]12CC[C@H](OS(=O)(=O)O)CC1=CC[C@@H]1[C@@H]2CC[C@]2(C)C(=O)CC[C@@H]12 [dehydroepiandrosterone sulphate]
> 12.5 µM

---

system: Plasmodium falciparum NF54 gametocytes; conditions: gametocyte stage: Stage V Dose Response IC50 (µM); assay protocol: SaLSSA, 384; incubation time: 72 h
property.label: IC50 of gametocyte viability

1. CC1Cc2c([nH]c3cc(F)c(F)cc23)C2(N1)C(=O)Nc1ccc(Cl)cc12 (stereo not drawn) [KAF246] : 0.00235 µM
2. CC(C)(C)NCc1cc(Nc2ccnc3cc(Cl)ccc23)c2c(c1O)CCCC2 [Naphthoquine] : > 4.17 µM
3. O=C1C(O)=C([C@H]2CC[C@H](c3ccc(Cl)cc3)CC2)C(=O)c2ccccc21 [Atovaquone] : > 12.5 µM
4. O[C@@H](c1cc(C(F)(F)F)nc2c(C(F)(F)F)cccc12)[C@H]1CCCCN1 (racemic) [Mefloquine (Racemic)] : 0.132 µM
5. CC[C@H]1OC(=O)[C@H](C)[C@H](O[C@H]2C[C@@](C)(OC)[C@@H](O)[C@H](C)O2)[C@H](C)[C@@H](O[C@@H]2O[C@H](C)C[C@H](N(C)C)[C@H]2O)[C@](C)(O)C[C@@H](C)CN(C)[C@H](C)[C@H](O)[C@]1(C)O [Azithromycin] : > 12.5 µM

Item C[C@H]1c2cccc(O)c2C(=O)C2=C(O)[C@]3(O)C(=O)C(C(N)=O)=C(O)[C@@H](N(C)C)[C@@H]3[C@@H](O)[C@@H]21 [Doxycyclin] with Plasmodium falciparum NF54 gametocytes - IC50 of gametocyte viability?
> 12.5 µM

Another compound to check: CCN(CCO)CCCC(C)Nc1ccnc2cc(Cl)ccc12 (stereo not drawn) [Hydroxychloroquine]
> 6.25 µM

Another compound to check: CCCCN(CCCC)CC(O)c1cc(Cl)cc2c1-c1ccc(Cl)cc1/C2=C/c1ccc(Cl)cc1 (stereo not drawn) [Lumefantrine]
0.0523 µM

---

system: Plasmodium falciparum NF54 gametocytes; conditions: gametocyte stage: Stage I Dose Response IC50 (µM); assay protocol: TSSA, 384; incubation time: 72 h
Structures can show the parent of a compound that is named as a salt.
property.label: IC50 of gametocyte viability (µM)
Respond numerically; units are µM and should not be typed.

Here are 5 compounds together with their reported answers.
1. COc1cc(N[C@H](C)CCCN)c2nccc(C)c2c1Oc1ccc(Cl)c(Cl)c1 [NPC-1161B] : 5.21
2. C[C@H]1[C@H](OC(=O)CCC(=O)O)O[C@@H]2O[C@@]3(C)CC[C@H]4[C@H](C)CC[C@@H]1[C@@]24OO3 [Artesunate] : 0.00565
3. C=C[C@H]1CN2CC[C@H]1C[C@H]2[C@H](O)c1ccnc2ccc(OC)cc12 [Quinine sulfate dihydrate (coeff. 2)] : 0.918
4. N=C(N)c1ccc(OCCCCCOc2ccc(C(=N)N)cc2)cc1 : 0.713
5. CCCCN(CCCC)CC(O)c1cc(Cl)cc2c1-c1ccc(Cl)cc1/C2=C/c1ccc(Cl)cc1 (stereo not given) : 0.0224

Tell me the measured IC50 of gametocyte viability of CCN(CCO)CCCC(C)Nc1ccnc2cc(Cl)ccc12 (stereo not given) [Hydroxychloroquine] , please.
0.104

Another compound to check: CN(C)c1ccc2nc3ccc(=[N+](C)C)cc-3sc2c1 [Methylene Blue trihydrate]
0.0222

Another compound to check: `CCN(CC)Cc1cc(Nc2ccnc3cc(Cl)ccc23)ccc1O`
0.0134

---

test system: Plasmodium falciparum NF54 gametocytes; settings: gametocyte stage: Stage II Dose Response IC50 (µM); assay protocol: SaLSSA, 384; incubation time: 72 h
Parameter IC50 of gametocyte viability: see the listing below.

Here are 2 molecules together with their reported answers.
1. C[C@]12CC[C@H](OS(=O)(=O)O)CC1=CC[C@@H]1[C@@H]2CC[C@]2(C)C(=O)CC[C@@H]12 [dehydroepiandrosterone sulphate] : > 12.5 µM
2. COc1cc(Cc2cnc(N)nc2N)cc(OC)c1OC [Trimethoprim] : > 12.5 µM

Tell me the measured IC50 of gametocyte viability of Cc1cc(NS(=O)(=O)c2ccc(N)cc2)no1 [Sulfamethoxazole] , please.
> 12.5 µM

---

Parameter IC50 of gametocyte viability: see the listing below.
system: Plasmodium falciparum NF54 gametocytes; details: gametocyte stage: Stage II Dose Response IC50 (µM); assay protocol: SaLSSA, 384; incubation time: 72 h
Counter-ions that a name gives are not always drawn.

Here are 2 compounds together with their reported answers.
1) CC(C)NC(=N)NC(=N)Nc1ccc(Cl)cc1 [proguanil hydrochloride/1.14] : > 12.5 µM
2) CCC[C@@H]1C[C@@H](C(=O)N[C@@H]([C@H]2O[C@H](SC)[C@H](O)[C@@H](O)[C@H]2O)[C@H](C)Cl)N(C)C1 : > 12.5 µM

Please examine the following record next.
Tell me the measured IC50 of gametocyte viability of `COc1ncnc(NS(=O)(=O)c2ccc(N)cc2)c1OC` , please.
> 12.5 µM

---

Parameter IC50 of gametocyte viability: see the listing below.
system: Plasmodium falciparum NF54 gametocytes; settings: gametocyte stage: Stage I Dose Response IC50 (µM); assay protocol: TSSA, 384; incubation time: 72 h
Where a name gives a salt, the structure may show the parent alone.
Respond numerically; units are µM and should not be typed.

1) COc1ccc2nc3cc(Cl)ccc3c(Nc3cc(CN4CCCC4)c(O)c(CN4CCCC4)c3)c2n1 [Pyronaridine phosphate] : 0.0101
2) OC(c1cc(C(F)(F)F)nc2c(C(F)(F)F)cccc12)C1CCCCN1 (racemic) [Mefloquine (Racemic)] : 0.0569
3) OC(c1cc(C(F)(F)F)nc2c(C(F)(F)F)cccc12)C1CCCCN1 (stereo not given) [Mefloquine (+ RS)] : 0.0512

Please examine the following record next.
Tell me the measured IC50 of gametocyte viability of c1cc([C@H]2CC[C@]3(CC2)OO[C@]2(O3)C3CC4CC(C3)CC2C4)ccc1OCCN1CCOCC1 [OZ 439 mesylate] , please.
0.0102
